B1: TPR t1 (parent)
chain: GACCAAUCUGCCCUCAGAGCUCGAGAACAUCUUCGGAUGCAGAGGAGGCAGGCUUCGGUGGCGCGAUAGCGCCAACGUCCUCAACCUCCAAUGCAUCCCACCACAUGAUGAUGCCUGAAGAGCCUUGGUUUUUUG

variants of: B1; assay: polymerase ribozyme fitness, log enrichment relative to wild type (log ratio); higher = more active; in vitro selection for triplet polymerase activity
The entries below come with measured polymerase ribozyme fitness (log ratio) values attached.
VALUE TYPE: polymerase ribozyme fitness (log ratio)

* GACCAAUCUGCCCUCAGAGCUCGAGAACAUCUUCGGAUGCAGAGGAGGCAGGCUUCGGUGGCGCGAUAGCGCCAACGUCCUCAACCUCAAAUGCAUCCCACCACAUGAUGAUGCCUGAAAAGCCUUGCUUUCUUG [C89A G120A G128C U132C] | -3.37
* GACCAAUCUGCCCUCAGAGCUCGAGAACAUCUUCGGAUGCAGAGGAGGCAGGCUUCGGUGGAGCGAUAGCGCCAACGUCCUCAACCUCCAAUGCAUCCCACCACAUGAUGAUGCCUGAAGAGCCUUGGUUUUUUU [C62A G135U] | -1.52
* GACCAAUCUGCCCUCAGAGCUCGAGAACAUCUUCGGAUGCAGUGGAGGCAGGCUUCGGUGGCGCGAUAGCGCCAACGUCCUCAACCUCCAAUGCAUCCCACCAAAUGAUGAUGCCUGUAGAGCCUUGGUUUUUUG [A43U C104A A118U] | -4.29
* GUCCGAUCUGCUCUCAGAGCUCGAGAACAUCUUCGGAUGCAGAGGAGGCAGGCUUCGGUGACGCGAUAGCGCCAACGUCCUCAACCUCCAAUGCAUCCCACCACAUGAUGAGGCCUGAAGAGCCUUGGUUUUUUG [A2U A5G C12U G61A U112G] | -2.18
* GACCAAUCUGCGCUCAGAGCUCGAGAACAUCUUCGGAUGCAGAGGAGGCAGGCUUCGGUGGCGCGAUAGCGCCUACGUCCUCAACCUCCAAUGCAUCCCACCACAUGAUGAUGCCUGAAGAGCCUUGGUUUUUUG [C12G A74U] | -0.266
* GACCAAUCUGCCCUCAGAGCUCGAGAACAUCUUCGGAUGCAGAGGAGGCGGGCUUCGGUGGCGCGAUAGCGCCAACGUCCUCAAACUCCAAUGCAUCCCACCACAUGAUGAUGCCUGAAGAGCCUUGGUUUUUUG [A50G C85A] | -2.34
* GACCAAUCUGCCUUCAGAGCUCGAGAACAUCUUCGGAUGCAGAGUAGGCAGGCUUGGGUGGCGCGAUAGCGCCAACGUCCUCAACCACCAAUGCAUCCCACCACAUGAUGAUGCCUGAAGAGCCUUGGUUUUUUG [C13U G45U C56G U87A] | -3.44
* GACCAAUCUGCCCUCAGAGAUCGAGAACAUCUUCGGAUGCAGAGGAGGCAGGCUUCGGUGGCGCGAUAGCGCCAACGUCCUCAACCUCCAAUGCAUCCCACCACAUGAUGAUCCCUGAAGAGCCUUGGUUUUUUG [C20A G113C] | -4.5
* GACCAAUCUGCCCUCAGAGCUGGAGAACAUCUUCGGAUGCAGAGGAGGCAGGUUUCGGUGGCGCGAUAGCGCCAACGUCCUCAAUCUCCAAUGCAUCCCACCACAUGAUGAAGCCUGAAGAGCCUUGGUUUUUUG [C22G C53U C85U U112A] | -3.51
* GACCAAUCUGCCCUCAGAGCUCGAGAACAUCUUCGGAUGCAGAGGAGGCAGGAUUCGGUGGCGCGAUAGCGCCAAAGUCCUCAACCUACAAAGCAUCCCACCACAUGAUGAUGCCUGAAGAGCCUUGGUUUUUUG [C53A C76A C88A U92A] | -5.92
* GACCAAUCUGCCCUCUGAGCUCGAGAACAUCUUCGGAUGCAGAGGAGGCAUGCUUCGGUGGCGCGAUAGCGCCAACGUCCUCAACCUCCAAUGCAUCCCACCACAUGAUGAUGCCUGAAGAGCCUUGGUUUUUUG [A16U G51U] | -4.76
* GACCAAUCUCCCCUCAGAGCUCGAGAACAUCUUCGGAUGCAGAGGGGGCAGGCUUCGGUGGCGCGAUAGCGCCAACGUCCUCAACCUCCAAUGCAUCCCACCACAUGAUGAUGCCUGAAGAGCUUUGGUUUUUUG [G10C A46G C124U] | -0.222
* GACCAAUCUGCCCUCAGAGCUCGAGAACAUCUUCGGAUGCAGAGGAGGCAGGCUUCGGUGGCGCGAUAGCGCCAACGUCCUCAACCUCCAAUGCAUCCCACCACAUGAUGAUGCUUGAAGAGGCUUGGUUUUUUG [C115U C123G] | -0.112
* GACCAAUCUGCCCUCAGAGCUCGAGAACAUCUUCGGAUGCAGAGGAGGUAGGCUUCGGUGGCCCGAUAGCGCCAACGUCCUCAACCUCCAAUGCAUCCCACCACAUGAUGAUGCCUGAAGAGCCUUGGUUUUUUG [C49U G63C] | -0.762
* GACCAAUCUGCCCUCAGAGCUCGAGAACAUCUUCGGAUGCAGAGGAGGCAGGCUUCGGUGGCGCGAUAGCGCCAACGUCCUCAACCUCGAAUGCAUCCCACCACAUGAUGAUUCCUGAAGAGCCUUGGUUUUUUG [C89G G113U] | -3.93
* GACCAAUCUGCCCUCAGAGCUCGAGAACAUCUUCGGAUGCAGCGGAGGCAGGCUUCGGUGUCGCGAUAGCGCCAACGUCCUCAACCUCCAAUGCAUCCCACCACAUGAUGAUGCCUGAAGAGCCUUGGUUUUUUG [A43C G61U] | -2.24
* GGCCAAUCCGCCCUCAGAGCUCGAGAACAUCUUCGGAUGCAGAGGAGGCAGGCUUCGGUGGCGCGAUACCGCCAACGUCCUCAACCUCCAAUGCAUCCCACCACAUGAUGAUGCCUGAAGAGCCUUGGUUUUUUG [A2G U9C G69C] | -0.585
* GACCAAUCUGCCCUCAGAGCUCGAGAACAUCUUCGGAUGCAGAGGAGGCAGGCUUCGGUGGCGCGAUAGCGCCAACGUCCUCAACCUCCAAUGCAUCCCACCACAUGAUGAUACCUGAAUAGCCUUGGUUUUUUG [G113A G120U] | -2.35
* GACCAAUCUGCCCUCAGAGCUCGAGAACAUCUUCGAAUGCAGAGGAGGCAGGCUUCGGUGGCGCGUUAGCGCCAACGUCCUCAACCUACAAUGCAUCCCACCAGAUGAUGAUACCUGAAGAGGAUUGGUUUUUUG [G36A A66U C88A C104G G113A C123G C124A] | -5.59
* GACCAAUCUGCCCUCAGAGCUCGAGAACAUCUUCGGAUGCAGAGGAGGCAGGCUUCGGUGGUGCGAUAGCGCCAACGCCCUGACCCUCCAAUACAUCCCACCACAUGAUGAUGCCUGAAGAGUCUUGGGUUUUUG [C62U U78C C82G A84C G93A C123U U129G] | -1.05
* GACCAAUCUGCCCUCAGAGCUCGAGAACAUCUUCGGAUGCAGAGGAGGCAGGCUUCGGUGGCGCGAUAGCGCCAAAGUCCUCAACCUCAAAUGCAUCCCACCACAUGAUGAUGCCUGAAGAGCCUUGGUUUUCUG [C76A C89A U133C] | -2.43
* GACCAAUCUGCCCUCAGAGCUCGAGAACAUCUUCGGAUGCACAGGAGGCAGGCUUCGGUGGCGCGAUAGCGCCAACGUCCUCAACCUCCAAUGCAUCCCACCACAUGAUGAUGCCUGAAGAGCCUUUGUUUUUUG [G42C G127U] | -2.05
* GACCAAUCUGCCCUCAGAGCUAGAGAACAUCUUCGGAUGCAGAGGAGGCAGGCUUCGGUGGCGCGAUAGCGCCAACGUCCUCGACCUCCAAUGCAACCCACCACAUGAUGAUGACUGAAGAGCCUUGGUUUUUUG [C22A A83G U96A C114A] | -5.87
* GACCAUUCUGCCGUCAGAGCUCGAGAACAUCUUCGGAUGCAGAGGAGGCAGACUUCGGUGGCGCGAUAGCGCCAACGUCCUCAACCUCCAAUGCAUCCCACCACAUGAUGCUGCCGGAAGCGCCUUGGUUUUUUG [A6U C13G G52A A111C U116G A121C] | -1.83
* GACCAAUCUGCCCUCAGAGCUCGAGAACAUCUUCGGAUGCAGAGGAGGCAGGCUUCGGUGGCGCGAUAGCGCCAACGUCCUCAACCUCCAAUGCAUCCCACCACAUGAUGAUCUGUGAAGAGCUUUGGUUUUUUG [G113C C114U C115G C124U] | -3.2
* GACCAAUCUGCCCUCAGAGCUCGAGAACAUCUUCGGAUGCAGAGGAGGCAGUCUUCGGUGCCGCGAUAGCGCCAACGUCCUCAACCUCCAAUGCAUCCCACCACAUGAUGAUGCCUGAAGAGCGUUGGUUGUUUG [G52U G61C C124G U131G] | -1.09
* GACCAAUCUGCCUUCAGAGCUCGAGAACAUCCUCGGAUGCAGAGGAGGCAGGCUUCGGUGGCGCGAUAGCGCCAACGUCCUCAACCUCCAAUCCGUCCCACCACAUGAUGAUGCCUGAAGAGCCUUGGUUUUUUG [C13U U32C G93C A95G] | -1.09
* GACCAAUCUGCACUCAGAGCUCGAGAACAUCUUCGGAUGCAGAGGAGGCAGGCUUCGGUGGCGCGAUAGCGCCAACGUCCCCAACCUCCAAUGCAUCCCACCACAUGAUGAUGCCUGAAGAGCCUUGGUUUUUUG [C12A U81C] | -1.73
* GACCAAUCUGCCCUUAGAGCUCGAGAACAUCUUCGGAUGCAGAGGAGGCAGGCUUCGGUGGCGCGAUAGCGCCGACGUCCUCAACCUACACUGCAUCCCACCACAUGAUGAUGCCUGAAGAGCCUUGGUUUUUUG [C15U A74G C88A A91C] | -2.13
* GACCAAUCUGCCGUCAGAGCUCGAGAACAUCUUCGGAUGCAGAGGAGGCAGGCUUCGGUGGCGCGAUAGCGCCAACGUCCUCAACGUCCCAUGCGUCCCACCACAUGAUGAUGCCUGAAGAGCCUUGGUUUUUUG [C13G C86G A90C A95G] | -4.51
* GACCAAUCUGCCCUCAGAGCUCGAGAACAUUUUCGGAUGUAGAGGAGGCAGGCUUCGGUGGCGCGAUAGCGCCAACGUCCUCAACCUCCAAUGCAUCCCACCACAUGAUGAUGCCUGAAGAGCCUUGGUUUUUUG [C31U C40U] | -4.75
* GACCAAUCUGCCCUCAGAGCUCGAGAACAUCUUCGGAUGCAGAGGAGGCAGGCUUCGGUGGCUCGAUAGCGCCAACGUCCUCAACCUCCAAUGCAUCCCACCACAUGAUGAUGCCUGAUGAGCCUUGGUUUUUUG [G63U A119U] | -0.897
